- target_desc: serotonin transporter (Rattus norvegicus, UniProt P31652)
- Construct: from tissue
- Sequence (P31652 whole entry): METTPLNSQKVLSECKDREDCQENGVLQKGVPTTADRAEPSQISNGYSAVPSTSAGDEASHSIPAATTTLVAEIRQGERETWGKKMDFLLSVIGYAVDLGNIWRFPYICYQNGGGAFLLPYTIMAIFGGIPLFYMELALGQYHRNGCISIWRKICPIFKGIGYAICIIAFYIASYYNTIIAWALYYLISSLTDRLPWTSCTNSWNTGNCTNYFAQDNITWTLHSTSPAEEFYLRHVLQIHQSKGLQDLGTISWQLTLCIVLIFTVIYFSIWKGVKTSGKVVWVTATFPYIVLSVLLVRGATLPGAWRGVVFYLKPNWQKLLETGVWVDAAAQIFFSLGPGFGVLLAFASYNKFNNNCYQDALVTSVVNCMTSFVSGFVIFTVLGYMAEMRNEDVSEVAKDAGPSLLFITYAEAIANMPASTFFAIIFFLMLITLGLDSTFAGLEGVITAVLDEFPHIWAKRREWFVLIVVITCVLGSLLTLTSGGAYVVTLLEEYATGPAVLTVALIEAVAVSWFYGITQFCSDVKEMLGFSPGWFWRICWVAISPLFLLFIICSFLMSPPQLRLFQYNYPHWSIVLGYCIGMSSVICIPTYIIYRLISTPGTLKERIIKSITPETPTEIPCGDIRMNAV
- assay_method_text: Inhibition of [3H]paroxetine radioligand binding at the serotonin transporter
- study_conditions: IC50 5-HT [3H]-paroxatine, Table II
Where a name gives a salt, the structure may show the parent alone.
observed_property: IC50 (µM)
Please reply with the bare figure in µM and do not write the unit itself.

Some molecules with recorded IC50:
molecule	value_unit	IC50
Cc1cc([C@H]2[C@@H](c3ccc(Cl)cc3)C[C@@H]3CC[C@H]2N3C)on1 [RTI-165, Hydrochloride]	µM	0.572
Cc1ccc([C@H]2C[C@@H]3CC[C@H]([C@H]2c2ncc(-c4ccccc4)o2)N3C)cc1 [RTI-4229-178, Tartrate]	µM	1.7
Cc1ccc([C@H]2C[C@@H]3CC[C@H]([C@H]2c2nnc(C)o2)N3C)cc1 [RTI-4229-194, Hydrochloride]	µM	4.88
Cc1ccc([C@H]2C[C@@H]3CC[C@H]([C@H]2c2cc(-c4ccccc4)no2)N3C)cc1 [RTI-4229-176, Hydrochloride]	µM	5.11

--- query ---
Exercise: Report IC50, nothing else, for this molecule: CN1[C@H]2CC[C@@H]1[C@@H](c1nnc(-c3ccccc3)o1)[C@@H](c1ccc(Cl)cc1)C2 [RTI-4229-188, Hydrochloride]
Solution: 3.3

----------
- target_desc: norepinephrine transporter (UniProt Q9WTR4)
- assay_method_text: Inhibition of [3H]nisoxetine radioligand binding at the norepinephrine transporter
- study_conditions: read-out: NEN IC50 for inhibition of radioligand binding; NEN=[3H] nisoxetine
Counter-ions that a name gives are not always drawn.
observed_property: pIC50
Scale explanation: pIC50 corresponds to minus log10 of a concentration expressed in moles per litre.

Some compounds with recorded pIC50:
compound	observed_measurement
CCc1cc([C@@H]2C3CCC(C[C@@H]2c2ccc(Cl)cc2)N3C)on1 (some centres unmarked)	6.92
CC(=O)OC[C@@H]1C2CCC(C[C@@H]1c1ccc(Cl)cc1)N2C (some centres unmarked)	6.90
Cc1ccc([C@H]2C[C@@H]3CC[C@H]([C@H]2c2nnc(C)o2)N3C)cc1 [RTI-4229-194, Hydrochloride]	6.60
CC1C(c2ccc(Cl)cc2)CC2CCC1N2C (centres unmarked)	7.24

Exercise: Look up norepinephrine transporter (UniProt Q9WTR4) data: pIC50 of CN1C2CCC1C(C(=O)Oc1ccccc1)C(c1ccc(Cl)cc1)C2 (centres unmarked) [RTI-4229-122] , then report it.
Solution: 5.42

----------
- target_desc: dopamine transporter (UniProt P23977)
- Assay type: binding
- study_conditions: read-out: DA IC50 for inhibition of radioligand binding; DA=[3H]WIN 35,428
- Excerpt: Illustrative in vitro assays for binding are described in Boja et al Ann. NY Acad. Sci. 654:282-291 (1992), which is incorporated herein by reference in its entirety. […] Alternatively, the compounds may be analyzed by their ability to inhibit reuptake of a labelled neurotransmitter in a sample, in particular, in synaptosomes.
observed_property: IC50

Some molecules with recorded IC50:
molecule	target_desc	IC50
Cc1ccccc1OC(=O)C1C(c2ccc(Cl)cc2)CC2CCC1N2C (stereo not shown)	dopamine transporter (UniProt P23977)	3.91 nM
COC(=O)[C@@H]1C2CCC(C[C@@H]1c1ccc(N)c(Br)c1)N2C (stereo partly shown)	dopamine transporter (UniProt P23977)	3.91 nM
Fc1ccc(C2CC3CCC(N3)C2COc2ccc3c(c2)OCO3)cc1 (stereo not shown)	dopamine transporter (UniProt P23977)	3.96 nM

--- query ---
Exercise: Report IC50, nothing else, for this molecule: Cc1ccc(-c2cc([C@@H]3C4CCC(C[C@@H]3c3ccc(Cl)cc3)N4C)on2)cc1 (stereo partly shown)
Solution: 4.09 nM

Where do these numbers come from? They come from patent US6706880B2.
